Endpoint: pIC50
To interpret pIC50, take it as minus log10 of a concentration measured in moles per litre.

**Query** Item COC(=O)N[C@@H](Cc1ccccc1)C(=O)N[C@@H](Cc1ccc(NS(=O)(=O)O)cc1)c1nc(C2CC2)cs1 with UniProt:P18031 - pIC50?
**Result** 6.52

**Query** Item CCc1csc([C@H](Cc2ccc(NS(=O)(=O)O)cc2)NC(=O)CNC(=O)OC)n1 with UniProt:P18031 - pIC50?
**Result** 5.28

**Query** Item CCOC(=O)c1csc([C@H](Cc2ccc(NS(=O)(=O)O)cc2)NC(=O)C(C)(C)C)n1 with UniProt:P18031 - pIC50?
**Result** 4.35

**Query** Item CC(C)(C)OC(=O)N[C@@H](Cc1ccc(NS(=O)(=O)O)cc1)c1nc(-c2ccccc2)cs1 with UniProt:P18031 - pIC50?
**Result** 4.48
